- system-tested: Neuronal acetylcholine receptor; alpha4/beta2 (Rattus norvegicus, UniProt P09483+P12390)
- Sequence (P09483 whole entry): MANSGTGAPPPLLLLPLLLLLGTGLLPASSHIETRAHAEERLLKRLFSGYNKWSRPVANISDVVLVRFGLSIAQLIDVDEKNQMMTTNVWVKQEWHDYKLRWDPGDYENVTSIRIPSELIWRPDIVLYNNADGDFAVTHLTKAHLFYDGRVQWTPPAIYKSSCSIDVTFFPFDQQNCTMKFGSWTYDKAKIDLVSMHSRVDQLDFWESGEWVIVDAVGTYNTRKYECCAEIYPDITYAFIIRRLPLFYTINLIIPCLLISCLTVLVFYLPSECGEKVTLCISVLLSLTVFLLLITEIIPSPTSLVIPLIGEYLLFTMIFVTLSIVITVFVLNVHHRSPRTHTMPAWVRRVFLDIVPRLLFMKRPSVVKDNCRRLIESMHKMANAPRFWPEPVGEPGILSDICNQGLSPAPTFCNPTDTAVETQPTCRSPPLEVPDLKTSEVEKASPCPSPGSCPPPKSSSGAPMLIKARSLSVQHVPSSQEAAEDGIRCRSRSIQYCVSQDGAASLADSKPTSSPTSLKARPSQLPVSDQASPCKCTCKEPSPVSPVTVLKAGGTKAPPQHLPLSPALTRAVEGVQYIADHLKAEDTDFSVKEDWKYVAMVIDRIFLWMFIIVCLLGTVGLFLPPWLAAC
- Sequence (P12390 whole entry): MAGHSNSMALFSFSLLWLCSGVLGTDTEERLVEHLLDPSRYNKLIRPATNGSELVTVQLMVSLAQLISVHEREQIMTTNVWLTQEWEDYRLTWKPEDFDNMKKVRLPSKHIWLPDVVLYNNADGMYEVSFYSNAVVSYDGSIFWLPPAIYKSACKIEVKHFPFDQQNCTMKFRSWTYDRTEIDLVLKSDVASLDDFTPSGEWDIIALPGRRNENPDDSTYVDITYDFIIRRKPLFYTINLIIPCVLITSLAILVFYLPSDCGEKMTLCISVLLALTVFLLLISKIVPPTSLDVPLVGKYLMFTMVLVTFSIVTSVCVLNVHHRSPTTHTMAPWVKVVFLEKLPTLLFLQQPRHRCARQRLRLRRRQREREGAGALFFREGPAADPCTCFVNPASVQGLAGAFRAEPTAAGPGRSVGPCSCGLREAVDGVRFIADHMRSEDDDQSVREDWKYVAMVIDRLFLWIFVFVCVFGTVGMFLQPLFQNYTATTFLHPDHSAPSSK
- method-description: Displacement of [3H]cytisine from alpha-4-beta-2 ACHR in rat brain homogenate
Each entry below carries its recorded pKi.
Lab note: report pKi as minus log10 of the concentration in molar units, number only.

Sample CCOc1cncc(N2CC[C@@H]3CN[C@@H]3C2)c1 ; pKi observed: 9.80

Sample COc1cc(N2C[C@@H]3CCNC[C@@H]32)cnc1Br ; pKi observed: 8.85

Sample Clc1ccc(N2CC[C@@H]3CN[C@@H]3C2)nn1 ; pKi observed: 8.57

Sample c1ncc(N2CC[C@H]3CN[C@H]3C2)cn1 ; pKi observed: 10.40

Sample c1cncc(N2CC[C@@H]3CN[C@@H]3C2)c1 ; pKi observed: 10.23

Sample c1ncc(N2C[C@@H]3CCNC[C@@H]32)cn1 (single isomer, unassigned) ; pKi observed: 8.80

Further cases:
Sample c1cncc(N2CC[C@H]3CN[C@H]3C2)c1 ; pKi observed: 10.46

Sample COc1cncc(N2CC[C@@H]3CN[C@@H]3C2)c1 ; pKi observed: 9.74

Sample COc1cc(N2CC[C@@H]3CN[C@@H]3C2)cnc1Br ; pKi observed: 10.16

Sample N#Cc1cc(N2C[C@@H]3CCNC[C@@H]32)cnc1Br ; pKi observed: 10.15

Sample NC(=O)c1cc(N2C[C@@H]3CCNC[C@@H]32)cnc1Br ; pKi observed: 8.55

Sample COc1cc(N2CC[C@H]3CN[C@H]3C2)cnc1Br ; pKi observed: 10.57

Sample N#Cc1cncc(N2C[C@@H]3CCNC[C@@H]32)c1 ; pKi observed: 9.30

Sample Clc1cc(N2C[C@H]3CCNC[C@H]32)cnc1Cl ; pKi observed: 9.52

Sample Clc1ccc(N2C[C@H]3CCNC[C@H]32)cn1 ; pKi observed: 9.10

Sample COc1cncc(N2CC[C@H]3CN[C@H]3C2)c1 ; pKi observed: 10.42

Sample Clc1ccc(N2CC[C@H]3CN[C@H]3C2)nn1 ; pKi observed: 9.82

Sample Brc1cc(N2CC[C@H]3CN[C@H]3C2)cnc1Br ; pKi observed: 10.85

Sample O=[N+]([O-])c1ccc(N2CC[C@@H]3CN[C@@H]3C2)cn1 ; pKi observed: 8.62

* * *

- system-tested: Neuronal acetylcholine receptor; alpha4/beta2 (Rattus norvegicus, UniProt P09483+P12390)
- method-description: Displacement of [3H]cytisine from alpha-4-beta-2 ACHR in rat brain homogenate
Friendly reminder: Ki below 0.03 nM is condition met, at or above is condition not met.

Sample answers from the record:
IN: For this molecule, is Ki lower than 0.03 nM? N#Cc1cc(N2CC[C@H]3CN[C@H]3C2)cnc1Br
OUT: condition met

IN: For this molecule, is Ki lower than 0.03 nM? COc1cncc(N2C[C@@H]3CCNC[C@@H]32)c1
OUT: condition not met

IN: For this molecule, is Ki lower than 0.03 nM? Brc1cc(N2CC[C@@H]3CN[C@@H]3C2)cnc1Br
OUT: condition met

IN: For this molecule, is Ki lower than 0.03 nM? Clc1ccc(N2C[C@@H]3CCNC[C@@H]32)cn1
OUT: condition not met

IN: For this molecule, is Ki lower than 0.03 nM? COc1cncc(N2C[C@H]3CCNC[C@H]32)c1
OUT: condition not met

IN: For this molecule, is Ki lower than 0.03 nM? c1ncc(N2CC[C@@H]3CN[C@@H]3C2)cn1
OUT: condition not met

IN: For this molecule, is Ki lower than 0.03 nM? Cc1cc(N2C[C@H]3CCNC[C@H]32)cnc1Cl
OUT: condition not met

IN: For this molecule, is Ki lower than 0.03 nM? N#Cc1cncc(N2CC[C@H]3CN[C@H]3C2)c1
OUT: condition not met

Further cases:
IN: For this molecule, is Ki lower than 0.03 nM? Brc1cncc(N2CC[C@H]3CN[C@H]3C2)c1
OUT: condition met

IN: For this molecule, is Ki lower than 0.03 nM? Cc1cc(N2CC[C@@H]3CN[C@@H]3C2)cnc1Cl
OUT: condition not met

IN: For this molecule, is Ki lower than 0.03 nM? N#Cc1cc(N2C[C@H]3CCNC[C@H]32)cnc1Br
OUT: condition not met

IN: For this molecule, is Ki lower than 0.03 nM? Clc1ccc(N2CC[C@@H]3CN[C@@H]3C2)cn1
OUT: condition not met
